measured-target: T1, human GPC3 on cells (human, UniProt P51654 25-554)
T1 construct: whole, on cells; over-expressed on CHOK1 cells or endogenous on HEPG2, Hep3B and Huh-7 hepatocellular carcinoma cells; the cell line is named under assay; also called GPC3-CHOK1 cells; human GPC3 over-expressed CHOK1 cells
experiment-description: FACS, GPC3-CHOK1 cells
The binders listed here are annotated with their EC50.
measured-quantity: EC50 (µg/mL)

>>> quantitative_result("52H5D3B8-6#-VH2+VL2 (antibody, V domains shown, humanized) VH: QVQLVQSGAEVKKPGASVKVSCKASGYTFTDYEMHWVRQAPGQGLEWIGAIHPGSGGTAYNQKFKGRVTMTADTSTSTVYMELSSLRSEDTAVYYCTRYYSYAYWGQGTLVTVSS VL: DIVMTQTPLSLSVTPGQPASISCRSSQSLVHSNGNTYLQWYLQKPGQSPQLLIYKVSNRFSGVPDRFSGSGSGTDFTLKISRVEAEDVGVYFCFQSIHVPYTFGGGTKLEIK")
0.043
>>> quantitative_result("52H5D3B8-6#-VH2+VL3 (antibody, V domains shown, humanized) VH: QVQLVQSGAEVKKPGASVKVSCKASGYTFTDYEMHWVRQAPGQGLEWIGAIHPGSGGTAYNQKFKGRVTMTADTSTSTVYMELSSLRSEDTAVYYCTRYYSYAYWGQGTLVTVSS VL: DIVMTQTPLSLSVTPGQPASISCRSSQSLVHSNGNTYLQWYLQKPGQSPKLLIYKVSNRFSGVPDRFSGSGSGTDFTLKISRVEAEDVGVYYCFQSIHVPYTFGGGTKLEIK")
0.0411
>>> quantitative_result("52H5D3B8-6#-VH1+VL4 (antibody, V domains shown, humanized) VH: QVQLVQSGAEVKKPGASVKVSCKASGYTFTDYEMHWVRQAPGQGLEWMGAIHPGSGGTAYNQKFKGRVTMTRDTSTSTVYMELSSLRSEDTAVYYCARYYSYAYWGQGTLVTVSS VL: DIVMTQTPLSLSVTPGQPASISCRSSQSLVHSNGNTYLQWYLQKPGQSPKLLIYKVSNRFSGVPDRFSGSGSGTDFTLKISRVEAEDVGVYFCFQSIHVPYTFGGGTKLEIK")
0.0308
